Test system: ATP;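 note: ATP exposure 15 min at 22 °C before imaging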
Measurement Notes: switch fluorescence ratio, 500 uM ATP over buffer (Cy3 cluster intensity, sum of 5 cycles each) (fold (ratio)); higher = stronger signal-on switching upon ATP binding; sequences stand for … in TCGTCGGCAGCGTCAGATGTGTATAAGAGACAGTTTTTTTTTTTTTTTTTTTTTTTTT…TC
Measurement Setup: aptamer strand: ATP DNA aptamer (quencher-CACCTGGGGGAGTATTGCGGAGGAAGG + anchor), 100 nM annealed; ATP concentration: 500 uM

{"Sequence Chain": "GTTATTACGA", "switch fluorescence ratio": 1.01}
{"Sequence Chain": "TTTTAACCTG", "switch fluorescence ratio": 1.01}
{"Sequence Chain": "CTATAAAAGT", "switch fluorescence ratio": 0.998}
{"Sequence Chain": "GGCAGGCCAT", "switch fluorescence ratio": 1.06}
{"Sequence Chain": "AACTTATTTT", "switch fluorescence ratio": 1}
{"Sequence Chain": "GTGTCCATTG", "switch fluorescence ratio": 0.998}
{"Sequence Chain": "AGTTATTTGG", "switch fluorescence ratio": 1}
{"Sequence Chain": "AAAAACGTAA", "switch fluorescence ratio": 1.1}
{"Sequence Chain": "GTATGTAGGG", "switch fluorescence ratio": 0.995}
{"Sequence Chain": "TGCTTTTGGG", "switch fluorescence ratio": 0.976}
{"Sequence Chain": "AAGAGGTGAA", "switch fluorescence ratio": 0.987}
{"Sequence Chain": "GCATTAAGAT", "switch fluorescence ratio": 1.02}
{"Sequence Chain": "ATCTAGGTCA", "switch fluorescence ratio": 1.02}
{"Sequence Chain": "TATTCTCATT", "switch fluorescence ratio": 0.977}
{"Sequence Chain": "TGATGATGAC", "switch fluorescence ratio": 1.01}
{"Sequence Chain": "TAGGTATGGC", "switch fluorescence ratio": 0.976}
{"Sequence Chain": "ATTTAGGCTG", "switch fluorescence ratio": 1.06}
{"Sequence Chain": "TGGGGTCAAA", "switch fluorescence ratio": 0.995}
{"Sequence Chain": "TTTTACGTAG", "switch fluorescence ratio": 1.09}
{"Sequence Chain": "TTGTGTATGC", "switch fluorescence ratio": 0.958}
{"Sequence Chain": "GGACGGTATT", "switch fluorescence ratio": 1.08}
{"Sequence Chain": "GGCCCGTCGG", "switch fluorescence ratio": 1.03}
{"Sequence Chain": "ATTAAGCTGT", "switch fluorescence ratio": 1.01}
{"Sequence Chain": "TTTTTTCCTC", "switch fluorescence ratio": 1.1}

* * *

Tested on: ATP;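 note: ATP exposure 15 min at 22 °C before imaging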
Measurement Notes: switch fluorescence ratio, 500 uM ATP over buffer (Cy3 cluster intensity, sum of 5 cycles each) (fold (ratio)); higher = stronger signal-on switching upon ATP binding; sequences stand for … in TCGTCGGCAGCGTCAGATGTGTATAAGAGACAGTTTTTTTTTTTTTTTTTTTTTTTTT…TC
Measurement Setup: aptamer strand: ATP DNA aptamer (quencher-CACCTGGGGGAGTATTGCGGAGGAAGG + anchor), 100 nM annealed; ATP concentration: 500 uM
Quick reference: switch fluorescence ratio of the listed items.
Outcome Measure: switch fluorescence ratio

{"Sequence Chain": "AAGCGGGGGT", "Outcome Measure": "switch fluorescence ratio", "Test Result": 1.02}
{"Sequence Chain": "ATCGGGAGCC", "Outcome Measure": "switch fluorescence ratio", "Test Result": 0.959}
{"Sequence Chain": "CTGTGATGG", "Outcome Measure": "switch fluorescence ratio", "Test Result": 1.08}
{"Sequence Chain": "TTGCTGGGG", "Outcome Measure": "switch fluorescence ratio", "Test Result": 0.972}
{"Sequence Chain": "AGTGACAACA", "Outcome Measure": "switch fluorescence ratio", "Test Result": 1.01}
{"Sequence Chain": "TTGAAGTGTG", "Outcome Measure": "switch fluorescence ratio", "Test Result": 1.02}
{"Sequence Chain": "TACTCGGGGT", "Outcome Measure": "switch fluorescence ratio", "Test Result": 1}
{"Sequence Chain": "CAGGAGGGAG", "Outcome Measure": "switch fluorescence ratio", "Test Result": 1.01}
{"Sequence Chain": "TCAAGGCGGA", "Outcome Measure": "switch fluorescence ratio", "Test Result": 0.99}
{"Sequence Chain": "AGTGGGGGAG", "Outcome Measure": "switch fluorescence ratio", "Test Result": 1}
{"Sequence Chain": "TGGGGCGAGG", "Outcome Measure": "switch fluorescence ratio", "Test Result": 1.01}
{"Sequence Chain": "GAAACAATTG", "Outcome Measure": "switch fluorescence ratio", "Test Result": 0.99}
{"Sequence Chain": "AAGTACAGGC", "Outcome Measure": "switch fluorescence ratio", "Test Result": 1.27}
{"Sequence Chain": "ACGGGACAGC", "Outcome Measure": "switch fluorescence ratio", "Test Result": 1.2}
{"Sequence Chain": "TTTACTCGCA", "Outcome Measure": "switch fluorescence ratio", "Test Result": 1.3}
{"Sequence Chain": "GAGGATTTCA", "Outcome Measure": "switch fluorescence ratio", "Test Result": 0.997}
{"Sequence Chain": "TTCAGGTACT", "Outcome Measure": "switch fluorescence ratio", "Test Result": 1.06}
{"Sequence Chain": "ACGGGGTATT", "Outcome Measure": "switch fluorescence ratio", "Test Result": 0.996}
{"Sequence Chain": "CATCGGGGTC", "Outcome Measure": "switch fluorescence ratio", "Test Result": 1.07}
{"Sequence Chain": "TGTTGGAGCG", "Outcome Measure": "switch fluorescence ratio", "Test Result": 0.969}
{"Sequence Chain": "TATGTGGCT", "Outcome Measure": "switch fluorescence ratio", "Test Result": 1.02}
{"Sequence Chain": "CAGTGAGAAC", "Outcome Measure": "switch fluorescence ratio", "Test Result": 1.01}
{"Sequence Chain": "TGCAATGTAG", "Outcome Measure": "switch fluorescence ratio", "Test Result": 1.08}
{"Sequence Chain": "AGGCTTGGGC", "Outcome Measure": "switch fluorescence ratio", "Test Result": 0.971}
{"Sequence Chain": "TGTTCTCAAA", "Outcome Measure": "switch fluorescence ratio", "Test Result": 0.983}
{"Sequence Chain": "TTTTTCCCCC", "Outcome Measure": "switch fluorescence ratio", "Test Result": 1.04}
{"Sequence Chain": "CGCGTTCATT", "Outcome Measure": "switch fluorescence ratio", "Test Result": 0.972}
{"Sequence Chain": "TCATTCAAGT", "Outcome Measure": "switch fluorescence ratio", "Test Result": 1.04}
{"Sequence Chain": "AATCGCGGGC", "Outcome Measure": "switch fluorescence ratio", "Test Result": 1.09}
{"Sequence Chain": "TCGGGTGGGG", "Outcome Measure": "switch fluorescence ratio", "Test Result": 1.01}
{"Sequence Chain": "TTGGTTAAGT", "Outcome Measure": "switch fluorescence ratio", "Test Result": 1.01}
{"Sequence Chain": "GATACGATGG", "Outcome Measure": "switch fluorescence ratio", "Test Result": 0.983}
{"Sequence Chain": "TGCAAGTTTT", "Outcome Measure": "switch fluorescence ratio", "Test Result": 1.24}
{"Sequence Chain": "TTAAAATGTC", "Outcome Measure": "switch fluorescence ratio", "Test Result": 0.992}
{"Sequence Chain": "TTTGTGGGAC", "Outcome Measure": "switch fluorescence ratio", "Test Result": 1.11}
